# Test: splicing luciferase reporter signal modulators, primary screen, spliceosome inhibition project, cell-based, HEK293, splice +/- reporter (AID 1101);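 further: HEK293 cells carrying a splicing-competent luciferase reporter gene; test concentration not given here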
# Recorded conditions: luminescence, 24 h, higher = more signal, called active from +8 up or from −8 down
Item-by-item account of z-score
Please reply with the value in numeric form only.

Sample records with z-score:
> print(dat)
                                smiles.repr  readout  data.value
1  COC(=O)[C@@]1(Cc2ccccc2)[C@H]2c3cc(C(=O)N(C)C)n(Cc4c(CO)[nH]cc(C)c4=O)c3C[C@H]2CN1C(=O)c1ccccc1  z-score        1.06
2  C=C(COC)C(=O)CC[C@@H](OC(=O)c1cccnc1)c1ccc(OCCO)cc1  z-score      -0.853
3  CC(C)N1C(=O)C[C@@](C(=O)NCCCN(C)C)(c2ccc([N+](=O)[O-])cc2)[C@H]1c1ccc(CO)cc1  z-score       0.313

Here's the next entry for you.
Indicate its recorded z-score; the compound in question is COC(=O)[C@@]1(Cc2ccccc2N=[N+]=[N-])N=C(c2ccc(OCCCO)cc2)O[C@H]1c1ccccc1N=[N+]=[N-]
7.07

###

# Test: binders of probe aFST on microarray, primary screen, stem cell growth factor project, biochemical, small-molecule microarray, fluorescence 635/667 (AID 1086);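 further: score merges 667 nm fluorescence with signal-to-noise of each printed compound spot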
# Recorded conditions: higher = more signal
Item-by-item account of composite z-score
Please reply with the value in numeric form only.

Sample records with composite z-score:
Compound	composite z-score
C[C@H]1NC(=O)[C@@]23C(=O)N[C@@H](Cc4ccccc4)C2[C@H](C)[C@@]2(C)O[C@H]2C3/C=C/C/C=C\CNC(=O)[C@H](Cc2ccccc2)NC1=O (stereo partly specified)	-0.107
CCOC(=O)C1=CC[C@@H](c2ccc(OCc3ccccc3)c(OC)c2)N(S(=O)(=O)c2ccc(C)cc2)[C@H]1c1ccc(SC)cc1	1.67
CC(=O)c1ccc(C(O)C2C=CC3C(=O)N(c4ccccc4)C(=O)C3N2Nc2ccc(C#N)cc2)cc1 (stereo unspecified)	0.766
O=C1O[C@H](c2ccccc2)[C@H](c2ccccc2)N2[C@H]1[C@@H](C(=O)N1CCN(c3ncccn3)CC1)[C@]1(C(=O)Nc3ccc(C#CC4(O)CCCCCC4)cc31)[C@H]2c1ccc(OCCO)cc1	2.45
COc1ccc([Si](C)(C)[C@H]2[C@H](CCO)O[C@@]3(C(=O)N(Cc4cccc(N5C(=O)COc6ccccc65)c4)c4ccccc43)[C@@H]2C)cc1	-0.203

Here's the next entry for you.
Indicate its recorded composite z-score; the compound in question is CCCCCCc1nc(-c2cc(C)c(OC)c(C)c2)c(C)c2c1[Si](C(C)C)(C(C)C)OC2
0.021

###

# Test system: Alpha-bungarotoxin (Bungarus multicinctus) (UniProt P60615)
# Sequence (P60615 whole entry, looked up): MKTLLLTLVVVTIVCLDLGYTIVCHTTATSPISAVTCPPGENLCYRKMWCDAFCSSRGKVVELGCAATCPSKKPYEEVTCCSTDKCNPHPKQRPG
# Test: alpha-bungarotoxin binders on microarray, profiling panel, artefact control for SMM control protein annotation, biochemical, small-molecule microarray, Alexa647 label, 635/667 nm fluorescence (AID 1117)
# Recorded conditions: alpha-BTX-A647 binding fluorescence, higher = more signal
Binary call on composite z-score: true (1) from 0.8 upward, false (0) beneath that.

Worked examples, 5 compounds total:
Compound	Discrete label
CC(C)(C)OC(=O)CC[C@]1(C(=O)NCC(O)CO)N=C(c2ccc(OCCCO)cc2)O[C@H]1c1ccccc1 (stereo partly specified)	false (0)
O=C1NC(=O)C2C1C=CC(C(O)c1ccco1)N2Nc1ccccn1 (stereo unspecified)	false (0)
CCOC(=O)c1ccc(NC(=O)O[C@H]2[C@H](OC(=O)Nc3ccc4c(c3)OCO4)[C@@H](OC(=O)Nc3ccc4c(c3)OCO4)[C@@H](OC)O[C@@H]2CO)cc1	true (1)
O=C1OCCC/C=C\[C@H]2OC34C=CCN(CCN5CCOCC5)C(=O)[C@H]3N(CCCCCCO)C(=O)[C@@H]4C12 (stereo partly specified)	false (0)
COc1cc(CO)cc(I)c1O[C@H]1C=C(C(=O)NCCO)C[C@@H](NCc2ccc(F)cc2)[C@@H]1O	false (0)

// inclusive: composite z-score at least 0.8? input: CCCNC(=O)[C@@]1(c2ccc([N+](=O)[O-])cc2)CC(=O)N(C2CCCCC2)[C@@H]1c1ccc(CO)cc1
false (0)

// inclusive: composite z-score at least 0.8? input: [N-]=[N+]=NCc1ccccc1[C@H]1OC(c2ccc(OCCCO)cc2)=N[C@@]1(CCS(=O)(=O)c1ccccc1)C(=O)NCC(O)CO (stereo partly specified)
true (1)
